testTarget: human steroid 5-α-reductase (Homo sapiens)
Sequence (P31213 1-254): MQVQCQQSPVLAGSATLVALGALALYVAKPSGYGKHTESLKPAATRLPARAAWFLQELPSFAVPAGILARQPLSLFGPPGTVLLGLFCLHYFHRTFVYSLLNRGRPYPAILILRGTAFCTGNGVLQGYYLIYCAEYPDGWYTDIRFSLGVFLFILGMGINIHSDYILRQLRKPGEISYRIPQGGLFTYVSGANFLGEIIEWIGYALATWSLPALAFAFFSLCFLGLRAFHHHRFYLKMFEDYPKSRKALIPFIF
Returns: string. Value is class 1 if measured Ki is below 40 nM, and class 0 if it is greater than or equal to it.

>  <smilesStr>
CC(C)(C)NC(=O)[C@H]1CC[C@H]2[C@@H]3CCc4cc(C(=O)O)ccc4[C@H]3CC[C@]12C

>  <testTarget>
human steroid 5-α-reductase (Homo sapiens)

>  <groupLabel>
class 0

$$$$
>  <smilesStr>
CC(C)(C)NC(=O)C1=CC[C@H]2[C@@H]3CCc4cc(C(=O)O)ccc4[C@H]3CC[C@]12C

>  <testTarget>
human steroid 5-α-reductase (Homo sapiens)

>  <groupLabel>
class 0

$$$$
>  <smilesStr>
CC(C)N(C(=O)[C@H]1CC[C@H]2[C@@H]3CCc4cc(CC(=O)O)ccc4[C@H]3CC[C@]12C)C(C)C

>  <testTarget>
human steroid 5-α-reductase (Homo sapiens)

>  <groupLabel>
class 1

$$$$
>  <smilesStr>
CC(C)N(C(=O)[C@H]1CC[C@H]2[C@@H]3C=Cc4cc(C(=O)O)ccc4[C@H]3CC[C@]12C)C(C)C

>  <testTarget>
human steroid 5-α-reductase (Homo sapiens)

>  <groupLabel>
class 1

$$$$
>  <smilesStr>
CC(C)N(C(=O)C1=CC[C@H]2[C@@H]3CCc4cc(C(=O)O)ccc4[C@H]3CC[C@]12C)C(C)C

>  <testTarget>
human steroid 5-α-reductase (Homo sapiens)

>  <groupLabel>
class 0

$$$$
>  <smilesStr>
Cc1cc2c(cc1C(=O)O)CC[C@@H]1[C@@H]2CC[C@]2(C)[C@@H](C(=O)N(C(C)C)C(C)C)CC[C@@H]12

>  <testTarget>
human steroid 5-α-reductase (Homo sapiens)

>  <groupLabel>
class 0

$$$$
>  <smilesStr>
CC(C)N(C(=O)[C@H]1CC[C@H]2[C@@H]3CCc4cc(C(=O)O)ccc4[C@H]3CC[C@]12C)C(C)C

>  <testTarget>
human steroid 5-α-reductase (Homo sapiens)

>  <groupLabel>
class 1

$$$$
>  <smilesStr>
Cc1c(C(=O)O)ccc2c1CC[C@@H]1[C@@H]2CC[C@]2(C)[C@@H](C(=O)N(C(C)C)C(C)C)CC[C@@H]12

>  <testTarget>
human steroid 5-α-reductase (Homo sapiens)

>  <groupLabel>
class 0

$$$$
